- STUDY SYSTEM: T1, Rhesus SLC34A2 (Rhesus, UniProt F7HDA3 1-690)
- T1 construct: whole, on cells
- T1 sequence: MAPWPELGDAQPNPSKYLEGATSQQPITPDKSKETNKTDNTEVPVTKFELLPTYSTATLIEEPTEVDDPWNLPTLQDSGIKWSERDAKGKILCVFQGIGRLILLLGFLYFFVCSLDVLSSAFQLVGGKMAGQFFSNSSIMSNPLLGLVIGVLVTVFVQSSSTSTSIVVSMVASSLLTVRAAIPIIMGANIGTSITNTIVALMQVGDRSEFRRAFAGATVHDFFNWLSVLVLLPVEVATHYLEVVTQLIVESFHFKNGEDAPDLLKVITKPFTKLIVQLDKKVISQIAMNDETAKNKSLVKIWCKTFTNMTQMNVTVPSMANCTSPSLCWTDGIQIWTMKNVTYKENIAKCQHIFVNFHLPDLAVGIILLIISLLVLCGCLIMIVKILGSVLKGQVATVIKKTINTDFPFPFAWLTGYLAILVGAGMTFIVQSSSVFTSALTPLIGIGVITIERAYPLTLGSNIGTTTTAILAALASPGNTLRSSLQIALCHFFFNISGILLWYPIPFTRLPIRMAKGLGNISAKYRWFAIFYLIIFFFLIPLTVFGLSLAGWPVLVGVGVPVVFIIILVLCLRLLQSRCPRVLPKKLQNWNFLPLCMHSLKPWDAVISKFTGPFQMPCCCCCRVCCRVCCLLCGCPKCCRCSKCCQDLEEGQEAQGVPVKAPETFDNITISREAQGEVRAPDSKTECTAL
- TEST: FACS, HEK293/Rhesus SLC34A2 cells
PARAMETER MEASURED: Top (MFI)
Numeric only. Scale: MFI

xi63A11D5B4 hIgG1 (antibody, V domains shown, chimeric, hIgG1) VH: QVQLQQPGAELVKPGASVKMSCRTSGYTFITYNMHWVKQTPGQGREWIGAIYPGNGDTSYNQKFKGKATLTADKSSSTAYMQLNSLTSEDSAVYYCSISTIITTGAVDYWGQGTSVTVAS VL: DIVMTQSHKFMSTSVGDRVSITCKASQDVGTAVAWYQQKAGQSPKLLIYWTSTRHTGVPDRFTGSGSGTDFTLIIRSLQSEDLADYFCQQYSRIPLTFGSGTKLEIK: 15200

Next binder, please.
Task: Would you kindly share the measured Top (MFI) for 62G10E4G8.p3.z8 hIgG1 (antibody, V domains shown, humanized hIgG1) VH: QVQLVQSGAEVKKPGASVKVSCKASGYTFPSYITHWVRQAPGQGLEWIGAIYPGNADTSYIQKFKGRVTMTADKSTSTVYMELSSLRSEDTAVYYCARGTYGTSAWFTYWGQGTLVTVSS VL: EIVLTQSPATLSASPGERATLSCRARQNIGNNLYWYQQKPGQSPRLLIKYASQSISGIPSRFSGSGSGTDFTLTISSVQSEDFAVYFCQQSFSWPLTFGAGTKLEIK ?
Output: 12200
